- system_under_test: B-RAF V600E (Homo sapiens, UniProt P15056, V600E)
- Construct: expressed in transfected cells; host or cells: T-Rex 293 cells (Invitrogen #R71007)
- Sequence (P15056 whole entry V600E): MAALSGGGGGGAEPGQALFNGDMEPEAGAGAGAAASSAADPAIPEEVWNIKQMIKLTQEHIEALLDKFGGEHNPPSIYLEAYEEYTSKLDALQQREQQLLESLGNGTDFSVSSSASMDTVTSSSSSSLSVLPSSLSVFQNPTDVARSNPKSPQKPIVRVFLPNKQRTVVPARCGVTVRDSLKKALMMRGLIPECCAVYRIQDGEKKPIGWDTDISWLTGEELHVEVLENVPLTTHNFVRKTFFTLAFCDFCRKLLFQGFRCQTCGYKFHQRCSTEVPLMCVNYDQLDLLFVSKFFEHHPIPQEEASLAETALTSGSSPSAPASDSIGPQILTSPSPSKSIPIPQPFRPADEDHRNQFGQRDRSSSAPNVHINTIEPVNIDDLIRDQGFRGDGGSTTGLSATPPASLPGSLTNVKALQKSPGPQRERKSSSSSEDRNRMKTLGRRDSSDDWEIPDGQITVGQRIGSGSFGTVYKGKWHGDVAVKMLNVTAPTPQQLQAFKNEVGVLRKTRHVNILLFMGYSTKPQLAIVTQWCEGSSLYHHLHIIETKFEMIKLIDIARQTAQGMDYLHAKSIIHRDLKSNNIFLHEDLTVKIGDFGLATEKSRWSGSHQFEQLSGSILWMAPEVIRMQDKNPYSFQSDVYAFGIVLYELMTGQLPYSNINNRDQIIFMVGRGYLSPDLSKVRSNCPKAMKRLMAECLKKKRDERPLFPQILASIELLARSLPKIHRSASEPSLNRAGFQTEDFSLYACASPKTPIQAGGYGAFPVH
- assay: Target protein degradation, assay C: T-Rex 293 cells, HA-BRAF_V600E, 384 well format
- Assay type: cell-based
- condition_set: T-REx-293, Assay C, T-Rex 293 HA-BRAF_V600E cells, 24 hours, Examples 83-269
- Procedure: C. T-Rex 293 Cells (384 Well Format) T-Rex 293 cells were purchased from Invitrogen (#R71007), and stably transfected with a pcDNA4/TO_HA-BRAF_V600E construct, using 400 ug Zeocin for selection. […] BRAF intensity is quantified in HCS Studio software (ThermoFisher), using a custom script, exported, analyzed using KNIME, and curve curation is performed in an ELN (Scilligence). Cell toxicity is measured via comparing number of nuclei in PROTAC treated wells to DMSO controls. […]
Below: a set of entries, each annotated with reported Dmax.

Some solved entries appear below for comparison.
molecule: N#Cc1c(NS(=O)(=O)N2CC[C@@H](F)C2)ccc(F)c1Oc1ccc2ncn(-c3ccc(N4CCC(CN5CC6(CCC(c7ccc8c(c7)CN([C@@H]7CCC(=O)NC7=O)C8=O)CC6)C5)CC4)cc3)c(=O)c2c1
Dmax: 35 to 70%

molecule: COc1cc(N2CCN(c3ccc(-n4cnc5ccc(Oc6c(F)ccc(NS(=O)(=O)N7CC[C@@H](F)C7)c6C#N)cc5c4=O)cn3)CC2)cc2c1C(=O)N(C1CCC(=O)NC1=O)C2=O (stereo partly drawn)
Dmax: ≤ 35%

molecule: CN(c1ccc2c(c1)CN([C@H]1CCC(=O)NC1=O)C2=O)C1CCC2(CC1)CCN(CC1CCN(c3ccc(-n4cnc5ccc(Oc6c(F)ccc(NS(=O)(=O)N7CC[C@@H](F)C7)c6C#N)cc5c4=O)cc3)CC1)CC2
Dmax: 35 to 70%

Qu. Which Dmax value belongs to N#Cc1c(NS(=O)(=O)N2CC[C@@H](F)C2)ccc(F)c1Oc1ccc2ncn(-c3cnc(N4CCC(CN5CCC6(CC5)CN(c5cccc7c5CN(C5CCC(=O)NC5=O)C7=O)C6)CC4)nc3)c(=O)c2c1 (stereo partly drawn) ?
Ans. 35 to 70%

Qu. Fill blank: measured Dmax of the molecule N#Cc1c(NS(=O)(=O)N2CC[C@@H](F)C2)ccc(F)c1Oc1ccc2ncn(-c3ccc(N4CCC(CN5CC(c6ccc([C@@H]7CCC(=O)NC7=O)cc6F)C5)CC4)cc3)c(=O)c2c1 is ____.
Ans. ≤ 35%

Qu. Item under review: N#Cc1c(NS(=O)(=O)N2CC[C@@H](F)C2)ccc(F)c1Oc1ccc2ncn(-c3cccc(C4CCN(CC5CCN(c6ccc7c(c6)CN([C@H]6CCC(=O)NC6=O)C7=O)CC5)C4)c3)c(=O)c2c1 (single isomer, unassigned) [Example 257] . Reported Dmax?
Ans. 35 to 70%

Qu. Recorded Dmax of N#Cc1c(NS(=O)(=O)N2CC[C@@H](F)C2)ccc(F)c1Oc1ccc2ncn(-c3ccc(N4CCN(c5ccc6c(c5)CN(C5CCC(=O)NC5=O)C6=O)CC4)nc3)c(=O)c2c1 (stereo partly drawn) , please.
Ans. 35 to 70%

Qu. Would you mind telling me what Dmax value was observed for N#Cc1c(NS(=O)(=O)N2CC[C@@H](F)C2)ccc(F)c1Oc1ccc2ncn(-c3ccc(N4CC5(CN(CC6CCN(c7cccc8c7C(=O)N(C7CCC(=O)NC7=O)C8=O)CC6)C5)C4)nc3)c(=O)c2c1 (stereo partly drawn) ?
Ans. 35 to 70%

Qu. Item Cc1cc(N2CCC(CN3CCN(c4ccc(-n5cnc6ccc(Oc7c(F)ccc(NS(=O)(=O)N8CC[C@@H](F)C8)c7C#N)cc6c5=O)cc4)CC3)CC2)c(F)c2c1C(=O)N(C1CCC(=O)NC1=O)C2 (stereo partly drawn) [Example 94] has what recorded Dmax?
Ans. 35 to 70%

###

- system_under_test: B-RAF G466V (Homo sapiens, UniProt P15056, G466V)
- Construct: expressed in transfected cells; host or cells: T-Rex 293 cells (Invitrogen #R71007)
- Sequence (P15056 whole entry G466V): as the sequence (P15056 whole entry V600E) above, with G466V, E600V counted along it
- assay: Target protein degradation, assay B: T-Rex 293 cells, HA-B-RAF_G466V, 96 well format
- Type: cell-based
- condition_set: T-Rex 293 HA-B-RAF_G466V cells, 24 hours, Examples 1-82
- Experimental: B. T-Rex 293 Cells (96 Well Format) T-Rex 293 cells were purchased from Invitrogen (#R71007), and stably transfected with a pcDNA4/TO_HA-B-RAF_G466V construct, using 400 ug Zeocin for selection. […] Plate was wash three times with 200 uL PBS++, and imaged on a high content reader (ImageXpress Micro XLS, Molecular Devices). […]
Parameter Dmax: see the listing below.

molecule: N#Cc1c(NS(=O)(=O)N2CC[C@@H](F)C2)ccc(F)c1Oc1ccc2ncn(-c3ccc(N4CCN(CC5CN(c6ccc7c(c6)CN(C6CCC(=O)NC6=O)C7=O)C5)CC4)cc3)c(=O)c2c1 (some centres unmarked)
Dmax: 35 to 70%

Qu. Recorded Dmax for N#Cc1c(NS(=O)(=O)N2CC[C@@H](F)C2)ccc(F)c1Oc1ccc2ncn(-c3ccc(N4CCN(CC5CN(c6ccc7c(c6)CN(C6CCC(=O)NC6=O)C7=O)C5)CC4)nc3)c(=O)c2c1 (some centres unmarked) with B-RAF G466V (Homo sapiens, UniProt P15056, G466V), please?
Ans. ≤ 35%

Qu. Short answer please: Dmax, B-RAF G466V (Homo sapiens, UniProt P15056, G466V), entry N#Cc1c(NS(=O)(=O)N2CC[C@@H](F)C2)ccc(F)c1Oc1ccc2ncn(-c3ccc(N4CCC(OC5CCN(c6ccc7c(c6)CN(C6CCC(=O)NC6=O)C7=O)CC5)CC4)cc3)c(=O)c2c1 (some centres unmarked)
Ans. ≤ 35%

Qu. Can you look up Dmax on B-RAF G466V (Homo sapiens, UniProt P15056, G466V) for Cn1c(=O)n(C2CCC(=O)NC2=O)c2ccc(N3CCC(CN4CCN(c5ccc(-n6cnc7ccc(Oc8c(F)ccc(NS(=O)(=O)N9CC[C@@H](F)C9)c8C#N)cc7c6=O)cc5)CC4)CC3)cc21 (some centres unmarked) ?
Ans. 35 to 70%

Qu. What Dmax appears in the records for this molecule with B-RAF G466V (Homo sapiens, UniProt P15056, G466V)? N#Cc1c(NS(=O)(=O)N2CC[C@@H](F)C2)ccc(F)c1Oc1ccc2ncn(C3CCN(CC4CCN(c5ccc6c(c5)CN(C5CCC(=O)NC5=O)C6=O)CC4)CC3)c(=O)c2c1 (some centres unmarked)
Ans. ≤ 35%

###

- system_under_test: B-RAF G466V (Homo sapiens, UniProt P15056, G466V)
- Construct: expressed in transfected cells; host or cells: T-Rex 293 cells (Invitrogen #R71007)
- assay: Target protein degradation, assay D: T-Rex 293 cells, HA-BRAF_G466V, 384 well format
- Format: cell-based
- condition_set: Assay D, T-Rex 293 HA-BRAF_G466V cells, 24 hours, Examples 83-269
A collection of compounds and their measured DC50

compound: N#Cc1c(NS(=O)(=O)N2CC[C@@H](F)C2)ccc(F)c1Oc1ccc2ncn(-c3ccc(N4CCN(CC5CCN(c6ccc(N7CCC(=O)NC7=O)cc6)CC5)CC4)cc3)c(=O)c2c1 [Example 96]
DC50: 0.001 to 0.01 µM

We now examine a further compound.
Qu. Endpoint output: DC50 of N#Cc1c(NS(=O)(=O)N2CC[C@@H](F)C2)ccc(F)c1Oc1ccc2ncn(-c3ccc(N4CC5(CC(CN6CCC(c7ccc8c(c7)CN(C7CCC(=O)NC7=O)C8=O)CC6)C5)C4)cc3)c(=O)c2c1 (stereo partly drawn) [Example 190] . Value?
Ans. 0.001 to 0.01 µM

###

- system_under_test: B-RAF G466V (Homo sapiens, UniProt P15056, G466V)
- Construct: expressed in transfected cells; host or cells: T-Rex 293 cells (Invitrogen #R71007)
- assay: Target protein degradation, assay D: T-Rex 293 cells, HA-BRAF_G466V, 384 well format
- Type: cell-based
- condition_set: T-REx-293, Assay D, T-Rex 293 HA-BRAF_G466V cells, 24 hours, Examples 83-269
The molecules listed here are annotated with their Dmax.

Previously resolved entries follow.
molecule: N#Cc1c(NS(=O)(=O)N2CCC(F)C2)ccc(F)c1Oc1ccc2ncn(-c3ccc(N4CCN(CC5CN(c6ccc7c(c6)CN(C6CCC(=O)NC6=O)C7=O)C5)CC4)cc3)c(=O)c2c1 (stereo not drawn)
Dmax: 35 to 70%
--
molecule: N#Cc1c(NS(=O)(=O)N2CC[C@@H](F)C2)ccc(F)c1Oc1ccc2ncn(-c3ccc(N4CCN(CC5CCN(c6ccc7c(c6)CN(C6CCC(=O)NC6=O)C7=O)CC5)CC4)c(F)c3)c(=O)c2c1 (stereo partly drawn)
Dmax: ≤ 35%

Now let's try a different one.
Qu. Which measured Dmax belongs to N#Cc1c(NS(=O)(=O)N2CC[C@@H](F)C2)ccc(F)c1Oc1ccc2ncn(-c3ccc(N4CCC(CN5CCC(c6ccc([C@@H]7CCC(=O)NC7=O)cc6F)CC5)CC4)cc3)c(=O)c2c1 , tested on B-RAF G466V (Homo sapiens, UniProt P15056, G466V)?
Ans. 35 to 70%
